Origin of values: ChEMBL document CHEMBL4024795

Exercise: for every item that follows, state its recorded selectivity ratio.
- Test Method Notes: Selectivity index, ratio of IC50 for human MRC5 cells to IC50 for bloodstream form of Trypanosoma brucei brucei
- Format: toxicity
- Stated Conditions: read-out: Ratio IC50
Numbers only.

Smiles String | selectivity ratio
CN(C)c1ccc(Nc2c3ccc(NC(=O)CCN4CCCC4)cc3nc3cc(NC(=O)CCN4CCCC4)ccc23)cc1 | 1.5
NCCOc1cc(C(=O)Nc2cc(OCCN)c3ccccc3n2)nc(C(=O)Nc2cc(OCCN)c3ccccc3n2)c1 | 0.7
C[C@H]1O[C@@H](n2cc(CNc3cc4c5c(ccc6c5c3C(=O)N(CCCN(C)C)C6=O)C(=O)N(CCCN(C)C)C4=O)nn2)[C@H](O)[C@@H](O)[C@@H]1O | 53.5
CN(C)CCCN1C(=O)c2ccc3c4c(c(NCc5cn(CCO[C@H]6O[C@H](CO)[C@@H](O)[C@H](O)[C@@H]6O)nn5)cc(c24)C1=O)C(=O)N(CCCN(C)C)C3=O | 38.6

Name the recorded selectivity ratio for CC(=O)N[C@@H]1[C@@H](O)[C@H](O)[C@@H](CO)O[C@H]1n1cc(CNc2cc3c4c(ccc5c4c2C(=O)N(CCCN(C)C)C5=O)C(=O)N(CCCN(C)C)C3=O)nn1 .
5.7

* * *

- Species: Danio rerio
- Test Method Notes: Acute toxicity in AB zebrafish embryo assessed as mortality after 96 hrs post-fertlization
- Stated Conditions: in vivo, 96 h
Measured Quantity: LC50
Lab note: write values as number then unit, every time.

Smiles String | Result
CCCNc1cc2c3c(ccc4c3c1C(=O)N(CCCN(C)C)C4=O)C(=O)N(CCCN(C)C)C2=O | 410 µM

Attention now turns to another entry.
Name the recorded LC50 for C[C@H]1O[C@@H](n2cc(CNc3cc4c5c(ccc6c5c3C(=O)N(CCCN(C)C)C6=O)C(=O)N(CCCN(C)C)C4=O)nn2)[C@H](O)[C@@H](O)[C@@H]1O .
170 µM

* * *

- Test Method Notes: Selectivity index, ratio of IC50 for human MRC5 cells to IC50 for Leishmania major MHOM/IL/80/Friedlin promastigotes
- Assay type: toxicity
- Stated Conditions: read-out: Ratio IC50
Measured Quantity: selectivity ratio
Numbers only.

Record excerpt, results attached:
Smiles String | selectivity ratio
C[C@H]1O[C@@H](n2cc(CNc3cc4c5c(ccc6c5c3C(=O)N(CCCN(C)C)C6=O)C(=O)N(CCCN(C)C)C4=O)nn2)[C@H](O)[C@@H](O)[C@@H]1O | 4.9
NCCOc1cc(C(=O)Nc2cc(OCCN)c3ccccc3n2)nc(C(=O)Nc2cc(OCCN)c3ccccc3n2)c1 | 1.1
CN(C)c1ccc(Nc2c3ccc(NC(=O)CCN4CCCC4)cc3nc3cc(NC(=O)CCN4CCCC4)ccc23)cc1 | 0.7
CN(C)CCCN1C(=O)c2ccc3c4c(c(NCc5cn(CCO[C@H]6O[C@H](CO)[C@@H](O)[C@H](O)[C@@H]6O)nn5)cc(c24)C1=O)C(=O)N(CCCN(C)C)C3=O | 2.6

Attention now turns to another entry.
Name the recorded selectivity ratio for CC(=O)N[C@@H]1[C@@H](O)[C@H](O)[C@@H](CO)O[C@H]1n1cc(CNc2cc3c4c(ccc5c4c2C(=O)N(CCCN(C)C)C5=O)C(=O)N(CCCN(C)C)C3=O)nn1 .
0.5

* * *

- Test Method Notes: Selectivity index, ratio of IC50 for human MRC5 cells to IC50 for erythrocyte stage of Plasmodium falciparum 3D7
- Assay type: toxicity
- Stated Conditions: read-out: Ratio IC50
Exercise: for every item that follows, state its recorded selectivity ratio.
One number for each entry.

Smiles String | Result
C[C@H]1O[C@@H](n2cc(CNc3cc4c5c(ccc6c5c3C(=O)N(CCCN(C)C)C6=O)C(=O)N(CCCN(C)C)C4=O)nn2)[C@H](O)[C@@H](O)[C@@H]1O | 4
CN(C)CCCN1C(=O)c2ccc3c4c(c(NCc5cn([C@@H]6O[C@H](CO)[C@@H](O)[C@H](O)[C@H]6O)nn5)cc(c24)C1=O)C(=O)N(CCCN(C)C)C3=O | 0.9
CN(C)c1ccc(Nc2c3ccc(NC(=O)CCN4CCCC4)cc3nc3cc(NC(=O)CCN4CCCC4)ccc23)cc1 | 0.9
CCCNc1cc2c3c(ccc4c3c1C(=O)N(CCCN(C)C)C4=O)C(=O)N(CCCN(C)C)C2=O | 4
CC(=O)N[C@@H]1[C@@H](O)[C@H](O)[C@@H](CO)O[C@H]1n1cc(CNc2cc3c4c(ccc5c4c2C(=O)N(CCCN(C)C)C5=O)C(=O)N(CCCN(C)C)C3=O)nn1 | 1.4

For each entry beneath this line, provide reported selectivity ratio.
1. CN(C)CCCN1C(=O)c2ccc3c4c(c(NCc5cn(CCO[C@@H]6O[C@H](CO)[C@@H](O)[C@H](O)[C@H]6O)nn5)cc(c24)C1=O)C(=O)N(CCCN(C)C)C3=O
2. NCCOc1cc(C(=O)Nc2cc(OCCN)c3ccccc3n2)nc(C(=O)Nc2cc(OCCN)c3ccccc3n2)c1

2.6
2

Name the recorded selectivity ratio for CN(C)CCCN1C(=O)c2ccc3c4c(c(NCc5cn(CCO[C@H]6O[C@H](CO)[C@@H](O)[C@H](O)[C@@H]6O)nn5)cc(c24)C1=O)C(=O)N(CCCN(C)C)C3=O .
4.5
